Exercise: state measured IC50 for each of the compounds provided.
Target: UniProt O00519
Sequence (O00519 whole entry): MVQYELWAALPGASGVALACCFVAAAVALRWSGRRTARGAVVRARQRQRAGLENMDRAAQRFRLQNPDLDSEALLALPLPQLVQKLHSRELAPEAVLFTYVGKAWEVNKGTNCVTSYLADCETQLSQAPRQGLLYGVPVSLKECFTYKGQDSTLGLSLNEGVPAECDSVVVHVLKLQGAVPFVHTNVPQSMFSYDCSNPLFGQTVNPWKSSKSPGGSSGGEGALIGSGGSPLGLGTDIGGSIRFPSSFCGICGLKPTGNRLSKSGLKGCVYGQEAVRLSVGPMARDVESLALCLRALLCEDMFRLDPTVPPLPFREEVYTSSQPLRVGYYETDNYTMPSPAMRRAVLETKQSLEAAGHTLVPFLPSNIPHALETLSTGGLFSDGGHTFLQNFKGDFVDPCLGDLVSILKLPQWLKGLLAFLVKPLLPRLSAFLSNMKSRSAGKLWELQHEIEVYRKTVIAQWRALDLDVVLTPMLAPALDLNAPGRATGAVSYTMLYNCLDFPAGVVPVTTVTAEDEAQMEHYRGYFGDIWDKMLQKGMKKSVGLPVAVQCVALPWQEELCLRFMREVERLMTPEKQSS
Experiment: Inhibition of human recombinant FAAH assessed as conversion of [3H]AEA to [3H]ethanolamine after 10 mins by liquid scintillation counter

The cases that follow already have their IC50 on record.
O=[N+]([O-])c1ccc(SC(=S)N(c2ccccc2)c2ccccc2)c([N+](=O)[O-])c1 = > 1000 µM
CC(C)(C)c1ccc(SC(=S)N2CCN(C(c3ccccc3)c3ccccc3)CC2)cc1 = > 1000 µM
S=C(Sc1ccccc1Cl)N1CCN(C(c2ccccc2)c2ccccc2)CC1 = > 1000 µM
COc1ccc(SC(=S)N2CCN(C(c3ccccc3)c3ccccc3)CC2)cc1 = > 1000 µM

List the reported IC50 of each compound below.
1. O=[N+]([O-])c1ccc(SC(=S)N2CCCC2)c([N+](=O)[O-])c1
2. O=C1CCN(C(=S)Sc2ccc([N+](=O)[O-])cc2[N+](=O)[O-])CC1

# output
1. 22.4 µM
2. 97.7 µM
